Values compiled from PubChem BioAssay (NCI).

# experimentNotes: NCI Yeast Anticancer Drug Screen. Data for the mec2-1 strain (AID 157)
# measurementSetup: S. cerevisiae mec2-1 strain, at 50.0 µM (retest, dose inferred, filed as 5.0), active compounds read high
The panel holds about 79,000 compounds, 15% with a hit somewhere; the sample as a whole holds those more often.
endpointLabel: growth inhibition (%)
Give the value in % but do not write % after it.

// query growth inhibition value for entry O=C(Nc1ccccc1)c1ccc(Cl)cc1Cl
-4

// query growth inhibition value for entry CCOC(=O)c1cc2c(nc1N)/C(=C/c1ccccc1)CCCC2
96

// query growth inhibition value for entry O=C1C(c2ccccc2)=[N+]([O-])c2ccccc21
98

// query growth inhibition value for entry COc1ccc(C(=O)CC2(O)C(=O)N(C)c3c(Cl)cc(Cl)cc32)cc1 (configuration not stated)
56

// query growth inhibition value for entry CCOc1ccc2c(c1)nc1ccccc1[n+]2CC
33

// query growth inhibition value for entry CCC(CC)(C(=O)Nc1ccc2c(c1)c(=O)c1ccccc1n2C)C(=O)Nc1ccc2c(c1)c(=O)c1ccccc1n2C
86

// query growth inhibition value for entry O=C1CC(=S)NC(=S)N1
-1

// query growth inhibition value for entry COc1ccc(NC(=O)OC(C)C)c(OC)c1
4

// query growth inhibition value for entry COc1ccc(C2Oc3c(cccc3OC)C=C2[N+](=O)[O-])cc1 (configuration not stated)
98

// query growth inhibition value for entry CC(C)CC(CC(C)C)OP(=O)(O)OC(CC(C)C)CC(C)C
72

// query growth inhibition value for entry O=C1C=C(Br)C(=O)C(Br)=C1
99

// query growth inhibition value for entry N#C/C(=C\c1c(Cl)cccc1Cl)c1nc2ccccc2[nH]1
99

// query growth inhibition value for entry CC1C=C(COC(=O)Nc2ccccc2)ON1c1ccccc1 (configuration not stated)
96

// query growth inhibition value for entry CN(C)CCC(=O)C(=Cc1cc(Cl)cc(Cl)c1)C(=O)CCN(C)C
99

// query growth inhibition value for entry CS(=O)(=O)c1snc(N)c1C#N
85

// query growth inhibition value for entry CN(C)c1ccc(/C=C(\C#N)c2c(F)cccc2F)cc1
2

// query growth inhibition value for entry COc1ccccc1/C=C\C(=O)c1ccccc1
98
